# measured.on: T1, FokI catalytic domain protein including a C-terminal 6xHis tag and GSGS linker (Flavobacterium okeanokoites, UniProt P14870 426-579)
# T1 construct: also called Fok-1; Fok1
# T1 sequence: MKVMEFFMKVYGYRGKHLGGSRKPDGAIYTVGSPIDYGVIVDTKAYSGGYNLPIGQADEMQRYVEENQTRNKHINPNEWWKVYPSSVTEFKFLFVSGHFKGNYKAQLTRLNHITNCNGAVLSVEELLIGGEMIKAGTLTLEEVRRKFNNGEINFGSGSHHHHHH
# assay.summary: Biacore SPR, antibody as ligand, FokI as analyte
pKd: −log10 of the molar value.
measured.parameter: pKd

binder="2299.2G3.C6 (antibody, V domains shown) VH: QIQLVQSGPELKKPGETVKISCKASGYTFTDYSIHWVKQAPGEGLKWMAWINTETGAPTFADDFKGRLALSLETSANTAYLQINNLKHEDTATYFCAKEGGFYFYAMDYWGQGTSVTVSS VL: DIVMSQSPSSRAVSAGEKVTMSCKSSQSLLSSRTRKNYLAWYQQKPGQAPKMLISWASTREFGVPDRFTGSGFGTDFTLTISSVQGEDLAVYYCKQSYNFRTFGGGTKLEIK" measured_parameter=pKd assay_result="> 8.32"
binder="2299.6G5.C7 (antibody, V domains shown) VH: QIQLVQSGPELKKPGETVKISCKASGYTFTDYSIHWVKQAPGKGLKWMGWINTETGAPTFADDFKGRFAFSLETSASTAFLQINNLKNEDTATYFCAKEGGFYFYAMDYWGQGTSLTVSS VL: DIVMSQSPSSLAVSTGEKVTMSCKSSQSLLSSRTRKNYLAWYQQKPGQAPKLLISWASTRESGVPDRFTGSGSGTDFTLTISSVQAEDLAVYYCKQSFNLRTFGGGTKLEIK" measured_parameter=pKd assay_result="> 7.79"
binder="2299.5D4.C8 (antibody, V domains shown) VH: QIQLVQSGPELKKPGETVKISCKASGYTFTDYSIHWVKQAPGEGLKWMAWINTETGAPTFADDFKGRLALSLETSANTAYLQINNLKHEDTATYFCAKEGGFYFYAMDYWGQGTSVTVSS VL: DIVMSQSPSSLAVSAGEKVTMSCKSSQSLLSSRTRKNYLAWYQQKPGQAPKLLISWASTRESGVPDRFTGSGSGTEFTLTISSVQAEDLAVYYCKQSYNLRTFGGGTKLEIK" measured_parameter=pKd assay_result="> 8.12"
